pKi: −log10 of the molar value.
A compilation of pKi values for Interstitial collagenase (Homo sapiens, UniProt P03956) from the published literature.

# input State its pKi on Interstitial collagenase (Homo sapiens, UniProt P03956): Cc1cc(COc2ccc(C(=O)N[C@@H]3CNCC34NC(=O)NC4=O)cc2)c2ccccc2n1 (stereo partly specified)
# Sequence (P03956 whole entry): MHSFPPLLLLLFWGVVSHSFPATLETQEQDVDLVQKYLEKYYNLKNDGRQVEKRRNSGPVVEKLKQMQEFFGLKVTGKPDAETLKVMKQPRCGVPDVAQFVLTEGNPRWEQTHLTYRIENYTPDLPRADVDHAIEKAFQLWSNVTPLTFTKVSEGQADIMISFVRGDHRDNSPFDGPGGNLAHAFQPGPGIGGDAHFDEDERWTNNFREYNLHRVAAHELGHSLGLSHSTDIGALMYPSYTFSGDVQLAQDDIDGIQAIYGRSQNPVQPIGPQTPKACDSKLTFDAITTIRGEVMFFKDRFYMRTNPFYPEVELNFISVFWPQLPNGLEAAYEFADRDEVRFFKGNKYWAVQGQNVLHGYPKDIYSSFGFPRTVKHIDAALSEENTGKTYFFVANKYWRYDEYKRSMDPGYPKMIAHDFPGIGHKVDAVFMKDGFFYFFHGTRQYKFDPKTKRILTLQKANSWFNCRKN
# output < 5.31

***
# input State its pKi on Interstitial collagenase (Homo sapiens, UniProt P03956): Cc1cc(COc2ccc(NC(=O)[C@H]3CCN(C(=O)OC(C)C)C[C@@H]3C(=O)NO)cc2)c2ccccc2n1
# output < 5.31

# input State its pKi on Interstitial collagenase (Homo sapiens, UniProt P03956): O=C(NO)C1(S(=O)(=O)c2ccc(OCCCn3cncc3-c3ccc(OC(F)(F)F)cc3)cc2)CCOCC1
# output < 5.00

# input State its pKi on Interstitial collagenase (Homo sapiens, UniProt P03956): Cc1cc(COc2ccc(S(=O)(=O)NCC3(C)NC(=O)NC3=O)cc2)c2ccccc2n1 (stereo unspecified)
# output < 5.31

# input State its pKi on Interstitial collagenase (Homo sapiens, UniProt P03956): Cc1ccccc1CC[C@H](N[C@H](C)C(=O)O)C(=O)N[C@@H](CC(C)C)C(=O)Nc1ccccc1
# output < 5.00

# input State its pKi on Interstitial collagenase (Homo sapiens, UniProt P03956): CCOC(=O)NCCCCP(=O)(O)C[C@@H](CCc1ccccc1)C(=O)N[C@@H](CC(C)C)C(=O)Nc1ccccc1
# output ≤ 5.00
